assay: Cmax in human at 7.5 mg/kg, iv administered every 24 hrs; format: ADME, organism-based; parameters: dose 7.5 mg/kg, route intravenous; settings: in vivo
readout name: Cmax (µg/mL)

smi=CCCCCCCCCCNCCN[C@@]1(C)C[C@H](O[C@H]2[C@H](Oc3c4cc5cc3Oc3ccc(cc3Cl)[C@@H](O)[C@@H](NC(=O)[C@@H](CC(C)C)NC)C(=O)N[C@@H](CC(N)=O)C(=O)N[C@H]5C(=O)N[C@H]3C(=O)N[C@H](C(=O)N[C@H](C(=O)O)c5cc(O)c(CNCP(=O)(O)O)c(O)c5-c5cc3ccc5O)[C@H](O)c3ccc(c(Cl)c3)O4)O[C@H](CO)[C@@H](O)[C@@H]2O)O[C@@H](C)[C@H]1O readout_name=Cmax value_unit=µg/mL observed_value=89

----------
experiment: AUC in human at 7.5 mg/kg, iv administered every 24 hrs; assay type: ADME, organism-based; parameters: dose 7.5 mg/kg, route intravenous; details: plasma
readout name: AUC at 24 h (µg·h/mL)

smi=CCCCCCCCCCNCCN[C@@]1(C)C[C@H](O[C@H]2[C@H](Oc3c4cc5cc3Oc3ccc(cc3Cl)[C@@H](O)[C@@H](NC(=O)[C@@H](CC(C)C)NC)C(=O)N[C@@H](CC(N)=O)C(=O)N[C@H]5C(=O)N[C@H]3C(=O)N[C@H](C(=O)N[C@H](C(=O)O)c5cc(O)c(CNCP(=O)(O)O)c(O)c5-c5cc3ccc5O)[C@H](O)c3ccc(c(Cl)c3)O4)O[C@H](CO)[C@@H](O)[C@@H]2O)O[C@@H](C)[C@H]1O value_unit=µg·h/mL observed_value=604

----------
test: Terminal half life in human at 7.5 mg/kg, iv administered every 24 hrs; type: ADME, organism-based; design: dose 7.5 mg/kg, route intravenous; settings: in vivo
readout name: half-life

smi=CCCCCCCCCCNCCN[C@@]1(C)C[C@H](O[C@H]2[C@H](Oc3c4cc5cc3Oc3ccc(cc3Cl)[C@@H](O)[C@@H](NC(=O)[C@@H](CC(C)C)NC)C(=O)N[C@@H](CC(N)=O)C(=O)N[C@H]5C(=O)N[C@H]3C(=O)N[C@H](C(=O)N[C@H](C(=O)O)c5cc(O)c(CNCP(=O)(O)O)c(O)c5-c5cc3ccc5O)[C@H](O)c3ccc(c(Cl)c3)O4)O[C@H](CO)[C@@H](O)[C@@H]2O)O[C@@H](C)[C@H]1O readout_name=half-life observed_value="6.18 h"

----------
assay: Terminal half life in rabbit at 1 g, iv administered twice daily; assay type: ADME, organism-based, Oryctolagus cuniculus; conditions: in vivo
readout name: half-life (h)

smi=CN[C@H](CC(C)C)C(=O)N[C@H]1C(=O)N[C@@H](CC(N)=O)C(=O)N[C@H]2C(=O)N[C@H]3C(=O)N[C@H](C(=O)N[C@H](C(=O)O)c4cc(O)cc(O)c4-c4cc3ccc4O)[C@H](O)c3ccc(c(Cl)c3)Oc3cc2cc(c3O[C@@H]2O[C@H](CO)[C@@H](O)[C@H](O)[C@H]2O[C@H]2C[C@](C)(N)[C@H](O)[C@H](C)O2)Oc2ccc(cc2Cl)[C@H]1O value_unit=h observed_value=3.8

----------
test: Terminal half life in rabbit at 7.5 mg/kg, iv administered once daily; type: ADME, organism-based, Oryctolagus cuniculus; set-up: dose 7.5 mg/kg, route intravenous; details: in vivo
readout name: half-life

compound="CCCCCCCCCCNCCN[C@@]1(C)C[C@H](O[C@H]2[C@H](Oc3c4cc5cc3Oc3ccc(cc3Cl)[C@@H](O)[C@@H](NC(=O)[C@@H](CC(C)C)NC)C(=O)N[C@@H](CC(N)=O)C(=O)N[C@H]5C(=O)N[C@H]3C(=O)N[C@H](C(=O)N[C@H](C(=O)O)c5cc(O)c(CNCP(=O)(O)O)c(O)c5-c5cc3ccc5O)[C@H](O)c3ccc(c(Cl)c3)O4)O[C@H](CO)[C@@H](O)[C@@H]2O)O[C@@H](C)[C@H]1O [TELAVANCIN]" observed_value="4.6 h"

----------
assay: Cmax in rabbit at 7.5 mg/kg, iv administered once daily; format: ADME, organism-based, Oryctolagus cuniculus; parameters: dose 7.5 mg/kg, route intravenous; conditions: in vivo
readout name: Cmax (µg/mL)

smi=CCCCCCCCCCNCCN[C@@]1(C)C[C@H](O[C@H]2[C@H](Oc3c4cc5cc3Oc3ccc(cc3Cl)[C@@H](O)[C@@H](NC(=O)[C@@H](CC(C)C)NC)C(=O)N[C@@H](CC(N)=O)C(=O)N[C@H]5C(=O)N[C@H]3C(=O)N[C@H](C(=O)N[C@H](C(=O)O)c5cc(O)c(CNCP(=O)(O)O)c(O)c5-c5cc3ccc5O)[C@H](O)c3ccc(c(Cl)c3)O4)O[C@H](CO)[C@@H](O)[C@@H]2O)O[C@@H](C)[C@H]1O readout_name=Cmax value_unit=µg/mL observed_value=90

----------
experiment: Cmax in rabbit at 10 mg/kg, iv administered once daily; format: ADME, organism-based, Oryctolagus cuniculus; parameters: dose 10 mg/kg, route intravenous; conditions: in vivo
readout name: Cmax (µg/mL)

molecule="CCCCCCCCCCNCCN[C@@]1(C)C[C@H](O[C@H]2[C@H](Oc3c4cc5cc3Oc3ccc(cc3Cl)[C@@H](O)[C@@H](NC(=O)[C@@H](CC(C)C)NC)C(=O)N[C@@H](CC(N)=O)C(=O)N[C@H]5C(=O)N[C@H]3C(=O)N[C@H](C(=O)N[C@H](C(=O)O)c5cc(O)c(CNCP(=O)(O)O)c(O)c5-c5cc3ccc5O)[C@H](O)c3ccc(c(Cl)c3)O4)O[C@H](CO)[C@@H](O)[C@@H]2O)O[C@@H](C)[C@H]1O [TELAVANCIN]" readout_name=Cmax value_unit=µg/mL observed_value=114

----------
experiment: AUC in rabbit at 25 mg/kg, iv; format: ADME, organism-based, Oryctolagus cuniculus; design: dose 25 mg/kg, route intravenous; conditions: plasma
readout name: AUC (µg·h/mL)

smi=CN[C@H](CC(C)C)C(=O)N[C@H]1C(=O)N[C@@H](CC(N)=O)C(=O)N[C@H]2C(=O)N[C@H]3C(=O)N[C@H](C(=O)N[C@H](C(=O)O)c4cc(O)cc(O)c4-c4cc3ccc4O)[C@H](O)c3ccc(c(Cl)c3)Oc3cc2cc(c3O[C@@H]2O[C@H](CO)[C@@H](O)[C@H](O)[C@H]2O[C@H]2C[C@](C)(N)[C@H](O)[C@H](C)O2)Oc2ccc(cc2Cl)[C@H]1O readout_name=AUC observed_value=101

----------
assay: Protein binding in human at 1 g, iv administered every 12 hrs; type: ADME, organism-based; conditions: in vivo, read-out: PB
readout name: fraction unbound at 12 h

compound="CN[C@H](CC(C)C)C(=O)N[C@H]1C(=O)N[C@@H](CC(N)=O)C(=O)N[C@H]2C(=O)N[C@H]3C(=O)N[C@H](C(=O)N[C@H](C(=O)O)c4cc(O)cc(O)c4-c4cc3ccc4O)[C@H](O)c3ccc(c(Cl)c3)Oc3cc2cc(c3O[C@@H]2O[C@H](CO)[C@@H](O)[C@H](O)[C@H]2O[C@H]2C[C@](C)(N)[C@H](O)[C@H](C)O2)Oc2ccc(cc2Cl)[C@H]1O [VANCOMYCIN]" readout_name="fraction unbound at 12 h" observed_value=0.5

----------
test: Terminal half life in human at 1 g, iv administered every 12 hrs; assay type: ADME, organism-based; conditions: in vivo
readout name: half-life (h)

smi=CN[C@H](CC(C)C)C(=O)N[C@H]1C(=O)N[C@@H](CC(N)=O)C(=O)N[C@H]2C(=O)N[C@H]3C(=O)N[C@H](C(=O)N[C@H](C(=O)O)c4cc(O)cc(O)c4-c4cc3ccc4O)[C@H](O)c3ccc(c(Cl)c3)Oc3cc2cc(c3O[C@@H]2O[C@H](CO)[C@@H](O)[C@H](O)[C@H]2O[C@H]2C[C@](C)(N)[C@H](O)[C@H](C)O2)Oc2ccc(cc2Cl)[C@H]1O readout_name=half-life observed_value=4.6

----------
assay: AUC in rabbit at 15 mg/kg, iv; type: ADME, organism-based, Oryctolagus cuniculus; parameters: dose 15 mg/kg, route intravenous; conditions: plasma
readout name: AUC

smi=CCCCCCCCCCNCCN[C@@]1(C)C[C@H](O[C@H]2[C@H](Oc3c4cc5cc3Oc3ccc(cc3Cl)[C@@H](O)[C@@H](NC(=O)[C@@H](CC(C)C)NC)C(=O)N[C@@H](CC(N)=O)C(=O)N[C@H]5C(=O)N[C@H]3C(=O)N[C@H](C(=O)N[C@H](C(=O)O)c5cc(O)c(CNCP(=O)(O)O)c(O)c5-c5cc3ccc5O)[C@H](O)c3ccc(c(Cl)c3)O4)O[C@H](CO)[C@@H](O)[C@@H]2O)O[C@@H](C)[C@H]1O readout_name=AUC observed_value="270 µg·h/mL"

----------
assay: Cmax in rabbit at 1 g, iv administered twice daily; assay type: ADME, organism-based, Oryctolagus cuniculus; design: dose 1 g, route intravenous; conditions: in vivo
readout name: Cmax

smi=CN[C@H](CC(C)C)C(=O)N[C@H]1C(=O)N[C@@H](CC(N)=O)C(=O)N[C@H]2C(=O)N[C@H]3C(=O)N[C@H](C(=O)N[C@H](C(=O)O)c4cc(O)cc(O)c4-c4cc3ccc4O)[C@H](O)c3ccc(c(Cl)c3)Oc3cc2cc(c3O[C@@H]2O[C@H](CO)[C@@H](O)[C@H](O)[C@H]2O[C@H]2C[C@](C)(N)[C@H](O)[C@H](C)O2)Oc2ccc(cc2Cl)[C@H]1O readout_name=Cmax observed_value="46000 ng/mL"
